# I.C.50 in TF1 assay (neutralisation of TGFβ2 inhibition of TF1 cell proliferation) values compiled below
# Tested System: T1, recombinant human TGFβ2 (human, UniProt P61812 303-414)
# T1 sequence (looked up): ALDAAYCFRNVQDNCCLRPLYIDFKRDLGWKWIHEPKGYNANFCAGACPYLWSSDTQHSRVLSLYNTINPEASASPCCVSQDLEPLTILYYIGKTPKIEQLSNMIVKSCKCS
# Assay Notes: cell-based or functional assay
// return numeric value only (unit: nM, not printed)

Here's what some known entries look like.
# Binder, Unit Annotation, Quantitative Result
data = [
    ("6H1 scFv (scFv) scFv: EVQLVESGGGVVQPGRSLRLSCAASGFTFSSYGMHWVRQAPGKGLEWVAVIWYDGSNKYYADSVKGRFTISRDNSKNTLYLQMDSLRAEDTAVYYCGRTLESSLWGQGTLVTVSSGGGGSGGGGSGGGGSDVVMTQSPSSLSASVGDRVTITCRASQGISNYLAWYQQKPGKAPKLLIYKASTLESGVPSRFSGSGSGTEFTLTISSLQPEDFATYYCQQSYSTPRTFGQGTKVDIKR", "nM", 1.5),
    ("6H1 IgG4 (antibody, V domains shown, Whole antibody: human gamma 4 and human kappa constant regions (pG4D100, pKN100), CHO cells) VH: EVQLVESGGGVVQPGRSLRLSCAASGFTFSSYGMHWVRQAPGKGLEWVAVIWYDGSNKYYADSVKGRFTISRDNSKNTLYLQMDSLRAEDTAVYYCGRTLESSLWGQGTLVTVSS VL: DVVMTQSPSSLSASVGDRVTITCRASQGISNYLAWYQQKPGKAPKLLIYKASTLESGVPSRFSGSGSGTEFTLTISSLQPEDFATYYCQQSYSTPRTFGQGTKVDIKR", "nM", 100),
]

Consider the binder 14F12 scFv (scFv) scFv: EIQLVESGGGVVQPGRSLRLSCAASGFTFSSYAMHWVRQAPAKGLEWVAVISYDGSNKYYADSVKGRFTISRDNSKNTLYLQMNSLRAEDTAVYYCARAGLETTWGQGTLVTVSSSGGGGGSGGGGSGGGGSSSELTQDPAVSVALGQTVRITCQGDSLRNYYANWYQQKPGQAPVLVIYGKNNRPSGIPDRFSGSSSGNTASLTITGARAEDEGVYYCNSRDSSGAVFGGGTKLTVLG and give its measured I.C.50 in TF1 assay (neutralisation of TGFβ2 inhibition of TF1 cell proliferation). 90

// lookup I.C.50 in TF1 assay (neutralisation of TGFβ2 inhibition of TF1 cell proliferation) for 6B1 scFv (scFv, also called 6B1 single chain Fv) scFv: EVQLVESGGGVVQPGRSLRLSCAASGFTFSSYGMHWVRQAPGKGLEWVAVIWYDGSNKYYADSVKGRFTISRDNSKNTLYLQMDSLRAEDTAVYYCGRTLESSLWGQGTLVTVSSGGGGSGGGGSGGGGSSSELTQDPAVSVALGQTVRITCQGDSLRSYYASWYQQKPGQAPVLVIYGKNNRPSGIPDRFSGSSSGNTASLTITGAQAEDEADYYCNSRDSSSTHRGVFGGGTKLTVLG 15

Requested read-out: I.C.50 in TF1 assay (neutralisation of TGFβ2 inhibition of TF1 cell proliferation). Entry: 6B1 IgG4 (antibody, V domains shown, Whole antibody: human gamma 4 and human lambda constant regions; FITC-labelled in the human tissue study; also called antibody 6B1) VH: EVQLVESGGGVVQPGRSLRLSCAASGFTFSSYGMHWVRQAPGKGLEWVAVIWYDGSNKYYADSVKGRFTISRDNSKNTLYLQMDSLRAEDTAVYYCGRTLESSLWGQGTLVTVSS VL: SSELTQDPAVSVALGQTVRITCQGDSLRSYYASWYQQKPGQAPVLVIYGKNNRPSGIPDRFSGSSSGNTASLTITGAQAEDEADYYCNSRDSSSTHRGVFGGGTKLTVLG 11

Fill in: I.C.50 in TF1 assay (neutralisation of TGFβ2 inhibition of TF1 cell proliferation) of 6A5 IgG4 (antibody, V domains shown, Whole antibody: human gamma 4 and human lambda constant regions (pG4D100, pLN10), CHO cells) VH: EVQLVESGGGVVQPGRSLRLSCAASGFTFSSYGMHWVRQAPGKGLEWVAVIWYDGSNKYYADSVKGRFTISRDNSKNTLYLQMDSLRAEDTAVYYCGRTLESSLWGQGTLVTVSS VL: SSELTQDPAVSVALGQTVRITCQGDSLRSYYASWYQQKPGQAPVLVIYGKNNRPSGIPDRFAGSNSGNTASLTITGAQAEDEADYYCSSRDSSGNHVVFGGGTKLTVLG is ___ 150

Item 6A5 scFv (scFv, also called 6A5 single chain Fv) scFv: EVQLVESGGGVVQPGRSLRLSCAASGFTFSSYGMHWVRQAPGKGLEWVAVIWYDGSNKYYADSVKGRFTISRDNSKNTLYLQMDSLRAEDTAVYYCGRTLESSLWGQGTLVTVSSGGGGSGGGGSGGGGSSSELTQDPAVSVALGQTVRITCQGDSLRSYYASWYQQKPGQAPVLVIYGKNNRPSGIPDRFAGSNSGNTASLTITGAQAEDEADYYCSSRDSSGNHVVFGGGTKLTVLG has what recorded I.C.50 in TF1 assay (neutralisation of TGFβ2 inhibition of TF1 cell proliferation)? 8
